# Run description: chemical genetic growth profiling, strain panel (AID 1159580);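 note: tested at 20 µM; growth read once vehicle control cultures reached saturation at 30 °C; 1 = growth at the plate median or of vehicle wells; lower values mean less growth of the strain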
# Measurement setup: S. cerevisiae deletion strains, growth OD, locus YER155C, strain BEM2, hits give low values
Hit rate of the full screen: of about 5,500 compounds, about 2,000 (36%) were called active. Another 18% or so got no clear call; they are omitted. The list shows a part of the results.
Property: normalized growth; scope: individual molecules
API doc: respond with a numeric literal and nothing else, no unit.

Sample records with normalized growth:
[
  {
    "Molecule": "CCN(CC)CCOC(=O)C(c1ccccc1)C1CCCCC1 (centres undefined)",
    "normalized growth": 1
  },
  {
    "Molecule": "CC(=O)N[C@@H](Cc1c[nH]c2ccccc12)C(N)=O",
    "normalized growth": 1.01
  }
]

Exam item: Supply measured normalized growth of CC(CCC(=O)O)[C@H]1CCC2C3CC[C@@H]4CC(=O)CC[C@]4(C)C3C=C[C@@]21C (some centres undefined) in your reply.
Marked response: 1.06

Exam item: Give the value of normalized growth reported for the following: CCN1CCN(C(=O)NC(C(=O)N[C@@H]2C(=O)N3[C@@H]2SC(C)(C)[C@@H]3C(=O)O)c2ccccc2)C(=O)C1=O (some centres undefined)
Marked response: 0.991

Exam item: Provide one value: measured normalized growth of CC(=O)O[C@@H]1CC[C@@]2(C)C(C[C@@H](OC(C)=O)[C@@]3(C)C4=CC(=O)O[C@@H](c5ccoc5)[C@]4(C)CCC23)C1(C)C (some centres undefined)
Marked response: 1.02

Exam item: Answer with reported normalized growth of COc1cc(C/C=C/c2ccccc2)c(OC)cc1O
Marked response: 0.96

Exam item: Give normalized growth for CC(=O)OC1CCC2(C)C(CC(OC(C)=O)C3(C)C4=CC(=O)OC(c5ccoc5)C4(C)CCC23)C1(C)C (centres undefined)
Marked response: 0.997
